tested on: HCT-15 colon; test: NCI tumour cell line growth inhibition, 48 h
measured-property: GI50

These recorded examples may help you get a feel for the data.
NS(=O)(=O)c1ccc(N=Nc2c(O)[nH]c3ccc(-c4cnco4)cc23)cc1    > 25 µM
CC(=O)/C(C)=N/NC(=O)c1ccccc1O    > 10 µM

Just so you know, measured GI50 for "O=C(N/N=C/c1ccc(Cl)cc1)c1ccc(C(F)(F)F)nc1Nc1cccc(C(F)(F)F)c1" came out at 0.855 µM

* * *

tested on: PC-3 prostate; assay: NCI tumour cell line growth inhibition, 48 h
The entries below are paired with their reported TGI.

CC1(C)NC2C(=O)c3c([nH]c4ccccc34)[C@]3(C)CCC1CC23 (stereo partly specified)    > 100 µM

Just so you know, measured TGI for COC(CNC(=O)C(C)NC(=O)CCc1ccccc1)OC (stereo unspecified) came out at > 100 µM

Just so you know, measured TGI for "COc1ccc(/C=C/c2ccnc3ccccc23)c(OC)c1" came out at > 10 µM

Just so you know, measured TGI for "CC(=O)OC(/C=C/c1ccccc1)=C(OC(C)C)/C1=C(\c2ccccc2)SCCCSC1=O" came out at > 100 µM

Just so you know, measured TGI for COc1ccc(C2OC[C@H]3O[C@@H](OCc4ccccc4)[C@H](O)[C@@H](O)[C@@H]3O2)cc1 (stereo partly specified) came out at > 100 µM

Just so you know, measured TGI for "COc1cc(/C=C/c2cc(/C=C/c3ccc(O)c(OC)c3)n(C(=O)Nc3ccc(F)c(Cl)c3)n2)ccc1O" came out at 6.58 µM

* * *

The entries below are paired with their reported TGI.
system: HL-60(TB) leukemia; assay: NCI tumour cell line growth inhibition, 48 h
Write down the numeric answer in µM and omit the unit.

These recorded examples may help you get a feel for the data.
CCOC(=O)c1cc(C(O)P2(=O)N(CC(C)(C)C)[C@@H]3CCCC[C@H]3N2CC(C)(C)C)cn1C(=O)OC(C)(C)C (stereo partly specified)    48.6
CCN(CC)CCNc1nc2ccc([N+](=O)[O-])cc2[n+]([O-])n1    17.9
CC(C)(C)c1cc(C(C)(C)C)cc(S(=O)(=O)Nc2cc3ccccc3cc2C(=O)NCCN)c1    4.22
CC(=O)CSCc1ccccn1    64.5
NN/C(=N\S(=O)(=O)c1cc2ccccc2s1)Nc1ccc(Cl)cc1    48

Just so you know, measured TGI for "CCOCc1nc2c(OC)cc(-c3nc4ccc(N5CCN(C)CC5)cc4[nH]3)c(OC)c2[nH]1" came out at 21.1

Just so you know, measured TGI for CCOC(=O)CC1(C(=O)OCC)c2[nH]c3ccccc3c2CCN1Cc1ccccc1 (stereo unspecified) came out at 62.5

Just so you know, measured TGI for "C[C@@]12CC=C3c4nc(Nc5cccc(O)c5)sc4CC[C@]3(C)[C@H]1CC[C@]1(C)C(=O)CC[C@@H]21" came out at 6.48

Just so you know, measured TGI for O=C1CC(=Nc2ccc(Cl)cc2)C(c2ccccc2)N1c1ccccc1 (stereo unspecified) came out at 21.3

* * *

system: SW-620 colon; assay: NCI tumour cell line growth inhibition, 48 h
measured-property: TGI

These recorded examples may help you get a feel for the data.
Cc1ccc(C(=O)CN(/C=C/C(=O)C(F)(F)F)c2ccc(S(N)(=O)=O)cc2)cc1    > 100 µM
Cc1cc(S(=O)(=O)N=C2N(Cc3ccccc3)CCN2Cc2ccccc2)c(S)cc1Cl    > 100 µM
COC(=O)C1=CNC=C(C(=O)OC)C1C1=CC(=O)C(C)=CC1=O    22.2 µM
COC(=O)[C@@H](C)CNS(=O)(=O)N(c1cc(C(F)(F)F)cc(C(F)(F)F)c1)C1CCN(Cc2ccc(F)cc2)CC1    24.9 µM
O=P(Nc1ccc(Cl)cc1)(Oc1ccccc1)N(CCCl)CCCl (stereo not given)    > 100 µM

Just so you know, measured TGI for COC(CNC(=O)C(C)NC(=O)CCc1ccccc1)OC (stereo not given) came out at > 100 µM

Just so you know, measured TGI for "O=C(N/N=C/c1ccc(Cl)cc1)c1ccc(C(F)(F)F)nc1Nc1cccc(C(F)(F)F)c1" came out at 10.4 µM

Just so you know, measured TGI for COC(=O)/C(=N\Nc1nnc(C)n1N)C(C#N)c1ccc(Cl)cc1 (stereo not given) came out at > 100 µM

Just so you know, measured TGI for NC(N)=N/N=C(\c1nc2ccc([N+](=O)[O-])cc2[nH]c1=O)C(O)c1ccc([N+](=O)[O-])cc1 (stereo not given) came out at > 100 µM

Just so you know, measured TGI for Cc1cccc(NC(=O)/C(=N\NC(C)(C)C)C2NC(=S)NC2=O)c1C (stereo not given) came out at > 100 µM
